Biological target: recombinant human ALK5 (TGF-βR1) protein (Homo sapiens)
Construct: purchased Life Technologies PR9075A
Experiment: Biochemical ALK5 (TGF-βR1) assay to measure pKi (LANCE Ultra ULight kinase assay)
Conditions: apparent pKi from pIC50 by Cheng-Prusoff, read-out: ALK5 pKi (converted)

>  <COMPOUND>
Cc1cccc(-c2[nH]cnc2-c2ccc3ncc(C(=O)OCCN4CC5(CCCNC5)C4)cc3c2)n1

>  <SYSTEM>
recombinant human ALK5 (TGF-βR1) protein (Homo sapiens)

>  <Ki>
0.398 to 3.16 nM

$$$$
>  <COMPOUND>
Cc1cccc(-c2n[nH]cc2-c2ccc3ncc(N(C)CC(=O)N4CCOCC4)cc3n2)n1

>  <SYSTEM>
recombinant human ALK5 (TGF-βR1) protein (Homo sapiens)

>  <Ki>
0.398 to 3.16 nM

$$$$
>  <COMPOUND>
Cc1cccc(-c2[nH]cnc2-c2ccc3ncc(-c4ccnc(C(=O)O[C@@H]5CCNC5)c4)cc3c2)n1

>  <SYSTEM>
recombinant human ALK5 (TGF-βR1) protein (Homo sapiens)

>  <Ki>
0.0398 to 0.316 nM

$$$$
>  <COMPOUND>
Cc1cccc(-c2[nH]cnc2-c2ccc3ncc(-c4cncc(C(=O)O[C@H]5CCNC5)c4)cc3c2)n1

>  <SYSTEM>
recombinant human ALK5 (TGF-βR1) protein (Homo sapiens)

>  <Ki>
0.0398 to 0.316 nM

$$$$
>  <COMPOUND>
Cc1cccc(-c2[nH]cnc2-c2ccc3ncc(-c4csc(C(=O)O[C@H]5CC[C@@](C)(N)CC5)c4)cc3c2)n1

>  <SYSTEM>
recombinant human ALK5 (TGF-βR1) protein (Homo sapiens)

>  <Ki>
< 0.0316 nM

$$$$
>  <COMPOUND>
Cc1cccc(-c2n[nH]cc2-c2ccc3ncc(-c4ccc(C5CCCN(C)C5)cc4)cc3n2)n1 (stereo not shown)

>  <SYSTEM>
recombinant human ALK5 (TGF-βR1) protein (Homo sapiens)

>  <Ki>
< 0.0316 nM

$$$$
>  <COMPOUND>
Cc1cccc(-c2[nH]cnc2-c2ccc3ncc(-c4cccc(C(=O)OCCN5CCNCC5)n4)cc3c2)n1

>  <SYSTEM>
recombinant human ALK5 (TGF-βR1) protein (Homo sapiens)

>  <Ki>
0.0398 to 0.316 nM

$$$$
>  <COMPOUND>
Cc1nc(-c2n[nH]cc2-c2ccc3ncc(-c4c(C)nn5c4NCCC5)cc3n2)ccc1F

>  <SYSTEM>
recombinant human ALK5 (TGF-βR1) protein (Homo sapiens)

>  <Ki>
0.398 to 3.16 nM

$$$$
>  <COMPOUND>
Cc1cccc(-c2[nH]cnc2-c2ccc3ncc(C4=CCC(NC(C)C)CC4)cc3n2)n1 (stereo not shown)

>  <SYSTEM>
recombinant human ALK5 (TGF-βR1) protein (Homo sapiens)

>  <Ki>
< 0.0316 nM

$$$$
>  <COMPOUND>
Cc1cccc(-c2[nH]cnc2-c2ccc3ncc(C(=O)O[C@@H]4CCCC[C@@H]4N)cc3c2)n1

>  <SYSTEM>
recombinant human ALK5 (TGF-βR1) protein (Homo sapiens)

>  <Ki>
3.98 to 31.6 nM

$$$$
>  <COMPOUND>
Cc1cccc(-c2[nH]cnc2-c2ccc3ncc(-c4ccc(C(=O)OC[C@H]5CCCCN5)cn4)cc3c2)n1

>  <SYSTEM>
recombinant human ALK5 (TGF-βR1) protein (Homo sapiens)

>  <Ki>
0.0398 to 0.316 nM

$$$$
>  <COMPOUND>
Cc1cccc(-c2n[nH]cc2-c2ccc3ncc(C(=O)NCCCN4CCOCC4)cc3n2)n1

>  <SYSTEM>
recombinant human ALK5 (TGF-βR1) protein (Homo sapiens)

>  <Ki>
0.0398 to 0.316 nM

$$$$
>  <COMPOUND>
Cc1cccc(-c2[nH]cnc2-c2ccc3ncc(Nc4nc(CN5CCNCC5)cs4)cc3c2)n1

>  <SYSTEM>
recombinant human ALK5 (TGF-βR1) protein (Homo sapiens)

>  <Ki>
0.0398 to 0.316 nM

$$$$
>  <COMPOUND>
CCc1cccc(-c2n[nH]cc2-c2ccc3ncc(N4CCC(NC)CC4)cc3n2)n1

>  <SYSTEM>
recombinant human ALK5 (TGF-βR1) protein (Homo sapiens)

>  <Ki>
< 0.0316 nM

$$$$
>  <COMPOUND>
Cc1cccc(-c2[nH]cnc2-c2ccc3ncc(-c4nc(C(=O)OC5CCNCC5)cs4)cc3c2)n1

>  <SYSTEM>
recombinant human ALK5 (TGF-βR1) protein (Homo sapiens)

>  <Ki>
0.0398 to 0.316 nM

$$$$
>  <COMPOUND>
Cc1cccc(-c2[nH]cnc2-c2ccc3ncc(N4CC[C@@H](N)C4)cc3c2)n1

>  <SYSTEM>
recombinant human ALK5 (TGF-βR1) protein (Homo sapiens)

>  <Ki>
0.0398 to 0.316 nM

$$$$
>  <COMPOUND>
Cc1cccc(-c2[nH]cnc2-c2ccc3ncc(C(=O)OCCN4C[C@@H](C)N[C@@H](C)C4)cc3c2)n1

>  <SYSTEM>
recombinant human ALK5 (TGF-βR1) protein (Homo sapiens)

>  <Ki>
0.0398 to 0.316 nM

$$$$
>  <COMPOUND>
Cc1cccc(-c2[nH]cnc2-c2ccc3ncc(C(=O)O[C@@H]4CCCNC4)cc3c2)n1

>  <SYSTEM>
recombinant human ALK5 (TGF-βR1) protein (Homo sapiens)

>  <Ki>
0.398 to 3.16 nM

$$$$
>  <COMPOUND>
Cc1cccc(-c2[nH]nnc2-c2ccc3ncc(-c4cn[nH]c4)cc3n2)n1

>  <SYSTEM>
recombinant human ALK5 (TGF-βR1) protein (Homo sapiens)

>  <Ki>
0.0398 to 0.316 nM

$$$$

* * *

Quick reference for Ki among some compounds
Target: recombinant human ALK5 (TGF-βR1) protein (Homo sapiens)
Construct: purchased Life Technologies PR9075A
Experiment: Biochemical ALK5 (TGF-βR1) assay to measure pKi (LANCE Ultra ULight kinase assay)
Settings: apparent pKi from pIC50 by Cheng-Prusoff, read-out: ALK5 pKi (converted)

>  <STRUCTURE_SMILES>
Cc1cccc(-c2n[nH]cc2-c2ccc3ncc(C#N)cc3n2)n1

>  <SYSTEM>
recombinant human ALK5 (TGF-βR1) protein (Homo sapiens)

>  <Ki>
0.398 to 3.16 nM

$$$$
>  <STRUCTURE_SMILES>
Cc1cccc(-c2[nH]cnc2-c2ccc3ncc(-c4ccc(C(=O)OCC5CNC5)s4)cc3c2)n1

>  <SYSTEM>
recombinant human ALK5 (TGF-βR1) protein (Homo sapiens)

>  <Ki>
0.0398 to 0.316 nM

$$$$
>  <STRUCTURE_SMILES>
Cc1cccc(-c2[nH]cnc2-c2ccc3ncc(-c4ccc(C(=O)OC[C@@H]5CCCN5)cn4)cc3c2)n1

>  <SYSTEM>
recombinant human ALK5 (TGF-βR1) protein (Homo sapiens)

>  <Ki>
0.0398 to 0.316 nM

$$$$
>  <STRUCTURE_SMILES>
CCc1cccc(-c2n[nH]cc2-c2ccc3ncc(N4CCC(N5CCCC5)CC4)cc3n2)n1

>  <SYSTEM>
recombinant human ALK5 (TGF-βR1) protein (Homo sapiens)

>  <Ki>
< 0.0316 nM

$$$$
>  <STRUCTURE_SMILES>
Cc1cccc(-c2n[nH]cc2-c2ccc3ncc(N4CCOCC4)cc3n2)n1

>  <SYSTEM>
recombinant human ALK5 (TGF-βR1) protein (Homo sapiens)

>  <Ki>
< 0.0316 nM

$$$$
>  <STRUCTURE_SMILES>
Cc1cccc(-c2n[nH]cc2-c2ccc3ncc(N4CCC(N(C)C)CC4)cc3n2)n1

>  <SYSTEM>
recombinant human ALK5 (TGF-βR1) protein (Homo sapiens)

>  <Ki>
< 0.0316 nM

$$$$
>  <STRUCTURE_SMILES>
CNCCn1ccc(-c2cnc3ccc(-c4c[nH]nc4-c4cccc(C(C)C)n4)nc3c2)n1

>  <SYSTEM>
recombinant human ALK5 (TGF-βR1) protein (Homo sapiens)

>  <Ki>
< 0.0316 nM

$$$$

* * *

Target: recombinant human ALK5 (TGF-βR1) protein (Homo sapiens, UniProt P36897)
Construct: purchased Life Technologies PR9075A
Sequence (P36897 34-503): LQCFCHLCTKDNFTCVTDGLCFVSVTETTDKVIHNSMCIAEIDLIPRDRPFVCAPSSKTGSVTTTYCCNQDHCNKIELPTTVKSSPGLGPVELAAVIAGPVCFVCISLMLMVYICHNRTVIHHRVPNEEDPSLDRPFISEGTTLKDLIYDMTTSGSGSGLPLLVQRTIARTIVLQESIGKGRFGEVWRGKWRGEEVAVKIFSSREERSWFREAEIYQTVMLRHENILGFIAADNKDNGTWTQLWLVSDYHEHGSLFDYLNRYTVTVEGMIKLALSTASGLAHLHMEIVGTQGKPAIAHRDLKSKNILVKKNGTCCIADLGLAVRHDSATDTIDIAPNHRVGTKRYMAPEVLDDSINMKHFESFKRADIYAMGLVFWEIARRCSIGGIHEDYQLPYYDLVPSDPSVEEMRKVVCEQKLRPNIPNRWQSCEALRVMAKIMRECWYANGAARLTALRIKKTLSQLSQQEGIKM
Assay: Biochemical ALK5 (TGF-βR1) assay to measure pKi (LANCE Ultra ULight kinase assay)
Conditions: apparent pKi from pIC50 by Cheng-Prusoff, read-out: ALK5 pKi (converted)
Quick reference for Ki among some compounds

>  <COMPOUND>
Cc1cccc(-c2[nH]cnc2-c2ccc3ncc(N4CCC(NC(=O)[C@@H]5CCCN5)CC4)cc3c2)n1

>  <SYSTEM>
recombinant human ALK5 (TGF-βR1) protein (Homo sapiens, UniProt P36897)

>  <Ki>
0.0398 to 0.316 nM

$$$$
>  <COMPOUND>
Cc1cccc(-c2[nH]cnc2-c2ccc3ncc(-c4csc(C(=O)OC5CCNCC5)c4)cc3c2)n1

>  <SYSTEM>
recombinant human ALK5 (TGF-βR1) protein (Homo sapiens, UniProt P36897)

>  <Ki>
< 0.0316 nM

$$$$
>  <COMPOUND>
Cc1cccc(-c2nnn(Cc3ccccc3)c2-c2ccc3ncc(NCCN4CCN(C(C)C)CC4)cc3c2)n1

>  <SYSTEM>
recombinant human ALK5 (TGF-βR1) protein (Homo sapiens, UniProt P36897)

>  <Ki>
0.0398 to 0.316 nM

$$$$
>  <COMPOUND>
Cc1cccc(-c2[nH]ncc2-c2ccc3ncc(C(=O)OCCN4CCCC4)cc3n2)n1

>  <SYSTEM>
recombinant human ALK5 (TGF-βR1) protein (Homo sapiens, UniProt P36897)

>  <Ki>
0.398 to 3.16 nM

$$$$
>  <COMPOUND>
Cc1nc(-c2n[nH]cc2-c2ccc3ncc(-c4cc5n(n4)CCNC5)cc3n2)ccc1F

>  <SYSTEM>
recombinant human ALK5 (TGF-βR1) protein (Homo sapiens, UniProt P36897)

>  <Ki>
< 0.0316 nM

$$$$
>  <COMPOUND>
Cc1cccc(-c2n[nH]cc2-c2ccc3nccc(C(=O)NCN4CCOCC4)c3n2)n1

>  <SYSTEM>
recombinant human ALK5 (TGF-βR1) protein (Homo sapiens, UniProt P36897)

>  <Ki>
0.398 to 3.16 nM

$$$$
>  <COMPOUND>
CNCCn1cc(-c2cnc3ccc(-c4nn[nH]c4-c4cccc(C)n4)nc3c2)cn1

>  <SYSTEM>
recombinant human ALK5 (TGF-βR1) protein (Homo sapiens, UniProt P36897)

>  <Ki>
< 0.0316 nM

$$$$
>  <COMPOUND>
Cc1cccc(-c2n[nH]cc2-c2ccc3nccc(CN4CCC(N5CCOCC5)CC4)c3n2)n1

>  <SYSTEM>
recombinant human ALK5 (TGF-βR1) protein (Homo sapiens, UniProt P36897)

>  <Ki>
0.398 to 3.16 nM

$$$$
>  <COMPOUND>
Cc1cccc(-c2n[nH]cc2-c2ccc3ncc(-c4cncc(N)n4)cc3n2)n1

>  <SYSTEM>
recombinant human ALK5 (TGF-βR1) protein (Homo sapiens, UniProt P36897)

>  <Ki>
0.0398 to 0.316 nM

$$$$
>  <COMPOUND>
Cc1cccc(-c2[nH]cnc2-c2ccc3ncc(N4CCCC5(CNC5)C4)cc3c2)n1

>  <SYSTEM>
recombinant human ALK5 (TGF-βR1) protein (Homo sapiens, UniProt P36897)

>  <Ki>
0.0398 to 0.316 nM

$$$$
>  <COMPOUND>
Cc1cccc(-c2[nH]cnc2-c2ccc3ncc(-c4cncc(C(=O)OC5CCNCC5)c4)cc3c2)n1

>  <SYSTEM>
recombinant human ALK5 (TGF-βR1) protein (Homo sapiens, UniProt P36897)

>  <Ki>
0.0398 to 0.316 nM

$$$$
>  <COMPOUND>
Cc1cccc(-c2nnn(Cc3ccccc3)c2-c2ccc3ncc(-c4c[nH]nc4C(F)(F)F)cc3n2)n1

>  <SYSTEM>
recombinant human ALK5 (TGF-βR1) protein (Homo sapiens, UniProt P36897)

>  <Ki>
0.398 to 3.16 nM

$$$$
>  <COMPOUND>
CNCCn1ccc(-c2cnc3ccc(-c4nc[nH]c4-c4cccc(C)n4)nc3c2)n1

>  <SYSTEM>
recombinant human ALK5 (TGF-βR1) protein (Homo sapiens, UniProt P36897)

>  <Ki>
< 0.0316 nM

$$$$
>  <COMPOUND>
Cc1cccc(-c2n[nH]cc2-c2ccc3ncc(-c4[nH]nc5c4CCNC5)cc3n2)n1

>  <SYSTEM>
recombinant human ALK5 (TGF-βR1) protein (Homo sapiens, UniProt P36897)

>  <Ki>
0.0398 to 0.316 nM

$$$$
>  <COMPOUND>
Cc1cccc(-c2nn(C3CCCCO3)cc2-c2ccc3ncc(-c4cnoc4)cc3n2)n1 (centres unmarked)

>  <SYSTEM>
recombinant human ALK5 (TGF-βR1) protein (Homo sapiens, UniProt P36897)

>  <Ki>
0.398 to 3.16 nM

$$$$
>  <COMPOUND>
Cc1cccc(-c2n[nH]cc2-c2ccc3nccc(CN4CCOCC4)c3n2)n1

>  <SYSTEM>
recombinant human ALK5 (TGF-βR1) protein (Homo sapiens, UniProt P36897)

>  <Ki>
0.0398 to 0.316 nM

$$$$
>  <COMPOUND>
Cc1cccc(-c2n[nH]cc2-c2ccc3ncc(CNCCCN4CCN(C(C)C)CC4)cc3n2)n1

>  <SYSTEM>
recombinant human ALK5 (TGF-βR1) protein (Homo sapiens, UniProt P36897)

>  <Ki>
0.398 to 3.16 nM

$$$$

Numbers sourced from patent US11590116B2.
